The reported numbers originate from paper PMC7998926.

# TEST SUMMARY: in vivo
# STATED CONDITIONS: mouse, po, 10 mg/kg
MEASURE NAME: Cmax

CN(C)CCOc1ccc(/C(=C(/CCCl)c2ccccc2)c2ccccc2)cc1 [Toremifene] ... 160 nM
CN[C@H]1CC[C@@H](c2ccc(Cl)c(Cl)c2)c2ccccc21 [Sertraline] ... 430 nM

* * *

# TEST SUMMARY: in vivo
# STATED CONDITIONS: female, C57BL/6, mouse, po, 150 mg/kg
MEASURE NAME: MRT (h)

CC(C)COCC(CN(Cc1ccccc1)c1ccccc1)N1CCCC1 (stereo not shown) ... 6
